- ASSAY NOTES: Pharmacokinetic (PK) experiment in rats
- Type: in vivo, male SD rats
- RUN PARAMETERS: male, SD, rat, plasma; PO, 10 mg/kg, gavage, single
READOUT NAME: Cmax (ng/mL)
Return type: number; implicit unit ng/mL.

Request: # get_value(readout='Cmax', item= C[C@]12C=CC(=O)C=C1[C@@H](F)C[C@H]1[C@@H]3C[C@H]4OC(c5ccc(CSC6CCOC6=O)cc5)O[C@@]4(C(=O)CO)[C@@]3(C)C[C@H](O)[C@@]12F (stereo partly shown) [Compound 8] )
Response: 23.5

---

- ASSAY NOTES: Pharmacokinetic (PK) experiment in rats
- Assay type: in vivo, male SD rats
- RUN PARAMETERS: male, SD, rat, plasma, po, 10 mg/kg, gavage, single
- Experimental: Pharmacological Example 11. Pharmacokinetic (PK) Experiment in Rats The solution was prepared before administration. Animals: 6 male SD rats, SPF grade (Beijing Vital River Laboratory Animal Technology Co., Ltd.). Animal grouping: The animals were weighed prior to administration, and the dosage was calculated based on body weight. […] Data processing: Pharmacokinetic parameters were calculated using Phoenix WinNonlin 8.2.0 based on the plasma drug concentration data at different time points.
READOUT NAME: AUC(0-t)

Request: # get_value(readout='AUC(0-t)', item= C[C@]12C=CC(=O)C=C1[C@@H](F)C[C@H]1[C@@H]3C[C@H]4OC(c5ccc(CSC6CCOC6=O)cc5)O[C@@]4(C(=O)CO)[C@@]3(C)C[C@H](O)[C@@]12F (stereo partly shown) )
Response: < 70 ng·h/mL

---

- STUDY SYSTEM: glucocorticoid receptor (GR) (Homo sapiens)
- Sequence (P04150 521-777): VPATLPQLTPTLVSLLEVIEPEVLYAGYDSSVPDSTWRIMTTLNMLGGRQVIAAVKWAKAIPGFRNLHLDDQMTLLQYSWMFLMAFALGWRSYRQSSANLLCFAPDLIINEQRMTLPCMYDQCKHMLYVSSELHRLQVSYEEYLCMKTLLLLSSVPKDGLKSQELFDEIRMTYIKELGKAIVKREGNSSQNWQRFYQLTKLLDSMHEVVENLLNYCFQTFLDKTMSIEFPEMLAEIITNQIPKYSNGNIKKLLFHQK
- ASSAY NOTES: Assay for agonist activity on glucocorticoid receptor (luciferase reporter, HEK293 cells transfected with pBIND-GR plasmid)
- Assay type: cell-based
- RUN PARAMETERS: HEK293 cells transfected with pBIND-GR, luciferase signal; read-out: GR agonist EC50
- Protocol: Pharmacological Example 1: Assay for Agonist Activity on Glucocorticoid Receptor (GR) […] HEK293 cells were digested and seeded into 6-cm culture dishes. […] The cells were resuspended in phenol red-free DMEM medium containing 5% charcoal-stripped serum, counted, and then seeded into 96-well plates. […] The luminescence signal values were measured using a multimode microplate reader following the instructions of the luciferase assay kit. […]
READOUT NAME: pEC50
Lab note — pEC50 values are minus log10 of concentrations in M.

Request: # get_value(readout='pEC50', item= C[C@]12C=CC(=O)C=C1CC[C@H]1[C@@H]3C[C@H]4OC(c5ccc(CSC6CCOC6=O)cn5)O[C@@]4(C(=O)CO)[C@@]3(C)C[C@H](O)[C@@]12F (stereo partly drawn) )
Response: 9.01

Request: # get_value(readout='pEC50', item= C[C@]12C=CC(=O)C=C1CC[C@@H]1[C@@H]2[C@@H](O)C[C@@]2(C)[C@H]1C[C@H]1OC(c3ccc(CNC4CCOC4=O)cc3)O[C@]12C(=O)CO (stereo partly drawn) )
Response: 8.14

Request: # get_value(readout='pEC50', item= C[C@]12C=CC(=O)C=C1CC[C@H]1[C@@H]3C[C@H]4OC(c5cnc(CSC6CCOC6=O)nc5)O[C@@]4(C(=O)CO)[C@@]3(C)C[C@H](O)[C@@]12F (stereo partly drawn) )
Response: 8.08
